- test summary: Pharmacokinetics after iv and oral dosing
- Type: in vivo, BALB/c mice
- measurement setup: mouse, plasma; po 60 mg/kg, male BALB/c mice
readout type: AUC(0-t) (ng·h/mL)
The reply should contain only the number, in ng·h/mL.

Query: Recorded AUC(0-t) of Cc1cc(C#N)cc(C)c1Oc1nc(NC2CCN(Cc3ccc(S(N)(=O)=O)cc3)CC2)nc2ccsc12 [K-5a2] , please.
Reply: 968

* * *

- test summary: Pharmacokinetics after iv and oral dosing
- Type: in vivo, BALB/c mice
- measurement setup: mouse, plasma; po 120 mg/kg, male BALB/c mice; read-out: t1/2z (converted)
readout type: half-life (h)
The reply should contain only the number, in h.

Query: Recorded half-life of Cc1cc(C#N)cc(C)c1Oc1nc(NC2CCN(Cc3ccc(S(N)(=O)=O)cc3)CC2)nc2ccsc12 , please.
Reply: 1.75
